The reported numbers originate from the array DNA melting data of Ke et al..

test: melting temperature; melt of duplexes; conditions: sodium 0.0675 M; strand 1 µM

>  <SUBSTANCE>
CGACGTGCTACATGTGCTG+CAGCACATACAGCACGTCG (((((((((..((((((((+))))))))..)))))))))

>  <Tm [°C]>
51.5

$$$$
>  <SUBSTANCE>
CGACGTGCGGAATGTGCTG+CAGCACATGTCGCACGTCG (((((((((..((((((((+))))))))..)))))))))

>  <Tm [°C]>
57

$$$$
>  <SUBSTANCE>
CGACGTGCACAATGTGCTG+CAGCACATTTAGCACGTCG ((((((((..(((((((((+)))))))))..))))))))

>  <Tm [°C]>
48.3

$$$$
>  <SUBSTANCE>
CGACGTGCCTAATGTGCTG+CAGCACATCACGCACGTCG ((((((((.(.((((((((+)))))))).).))))))))

>  <Tm [°C]>
46.3

$$$$
>  <SUBSTANCE>
CGACGTGCTTCATGTGCTG+CAGCACATCACGCACGTCG ((((((((.(.((((((((+)))))))).).))))))))

>  <Tm [°C]>
47.8

$$$$
>  <SUBSTANCE>
CGACGTGCTAAATGTGCTG+CAGCACATTTAGCACGTCG (((((((((((((((((((+)))))))))))))))))))

>  <Tm [°C]>
61.6

$$$$
>  <SUBSTANCE>
CGACGTGCTGGATGTGCTG+CAGCACATTTGGCACGTCG ((((((((...((((((((+))))))))...))))))))

>  <Tm [°C]>
51.8

$$$$
